- measurement-target: T1, Recombinant Human FGFR2 alpha (IIIc) Fc Chimera Protein, CF (R&D systems, 712-FR-050) (human, UniProt P21802 22-377)
- T1 construct: bought; not shown: Fc part of the chimera
- T1 sequence (P21802 22-377, change not shown): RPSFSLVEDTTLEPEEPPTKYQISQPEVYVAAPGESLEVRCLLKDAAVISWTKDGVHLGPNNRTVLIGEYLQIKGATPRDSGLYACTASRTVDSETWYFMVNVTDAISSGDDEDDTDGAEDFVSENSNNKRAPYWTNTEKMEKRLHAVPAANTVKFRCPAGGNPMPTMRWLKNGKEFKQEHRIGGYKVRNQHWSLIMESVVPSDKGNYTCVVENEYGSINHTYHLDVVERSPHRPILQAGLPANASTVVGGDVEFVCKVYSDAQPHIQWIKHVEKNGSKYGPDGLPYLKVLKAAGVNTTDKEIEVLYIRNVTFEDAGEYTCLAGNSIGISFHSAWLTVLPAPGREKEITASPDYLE
- method-description: ELISA on plate-bound FGFR2-Fc
Bridge positions count the residues as written; N and C are the ends. Ends that are not written are not given here. COCH2 = acetyl group that carries the bridge
measurement-type: ELISA luminescence signal at 10 nmol/L peptide, relative to SEQ ID NO: 47 (=1)

binder	test-value
YCHENYLDPEQHQYFIYFK(COCH2)R (thioether 2-19) [cyclic peptide SEQ ID NO: 398]	0.5 to 0.7 ratio
LCQIYLYLTALQQGFEDFYPK(COCH2)N (thioether 2-21 (inferred)) [cyclic peptide SEQ ID NO: 417]	0.1 to 0.5 ratio
CENYLDPEQYQYFHYFK(COCH2)Y (thioether 1-17 (inferred)) [cyclic peptide SEQ ID NO: 432]	0.1 to 0.5 ratio
NCQLYYTYLYLHTLK(COCH2)F (thioether 2-15) [cyclic peptide SEQ ID NO: 379]	0.1 to 0.5 ratio
YCEENYLDPEQYTYFIYFK(COCH2)Y (thioether 2-19 (inferred)) [cyclic peptide SEQ ID NO: 266]	≥ 0.7 ratio
YCEENYLDPEQYQYFDYFK(COCH2)Y (thioether 2-19 (inferred)) [cyclic peptide SEQ ID NO: 287]	≥ 0.7 ratio

// provenance: patent US20260008815A1
